biological target: Neuropeptide Y receptor type 2 (Homo sapiens, UniProt P49146); test: Binding affinity against SMS-KAN cell membranes endogenously expressing Neuropeptide Y receptor type 2 using [125I]PYY as radioligand
Sequence (P49146 whole entry): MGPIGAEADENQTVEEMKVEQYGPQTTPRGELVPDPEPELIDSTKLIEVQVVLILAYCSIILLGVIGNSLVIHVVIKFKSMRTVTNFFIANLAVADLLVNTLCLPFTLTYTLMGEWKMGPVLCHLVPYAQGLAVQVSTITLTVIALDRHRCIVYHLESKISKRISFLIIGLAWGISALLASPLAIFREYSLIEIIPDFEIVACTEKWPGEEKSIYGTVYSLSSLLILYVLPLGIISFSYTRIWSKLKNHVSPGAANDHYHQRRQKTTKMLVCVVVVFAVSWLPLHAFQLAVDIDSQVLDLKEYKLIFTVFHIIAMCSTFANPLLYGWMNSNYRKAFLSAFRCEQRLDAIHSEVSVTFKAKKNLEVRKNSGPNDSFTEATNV

- molecule: "CN(C)CCCN(C(=O)c1cc2ccccc2s1)c1ccccc1NC(=O)c1ccccc1"
  IC50: "> 10 µM"
- molecule: "CN(C)CCCCN(C(=O)c1cc2ccccc2s1)c1ccccc1SCc1ccccc1"
  IC50: "> 10 µM"
- molecule: "CCCCc1ccccc1N(CCCN(C)C)C(=O)c1cc2ccccc2s1"
  IC50: "2.2 µM"
- molecule: "CN(C)CCCN(C(=O)c1cc2ccccc2o1)c1ccccc1SCc1ccccc1"
  IC50: "> 10 µM"
- molecule: "CNCCCN(C(=O)c1cc2ccccc2s1)c1ccccc1SCc1ccccc1"
  IC50: "> 10 µM"
- molecule: "CN(C)CCN(C(=O)c1cc2ccccc2s1)c1ccccc1SCc1ccccc1"
  IC50: "> 10 µM"
- molecule: "CN(C)CCCN(C(=O)c1sc2ccccc2c1Cl)c1ccccc1SCc1ccccc1"
  IC50: "> 10 µM"
- molecule: "CN(C)CCCN(C(=O)c1cc2ccccc2s1)c1ccccc1Cc1ccccc1"
  IC50: "> 10 µM"
- molecule: "CN(C)CCCN(C(=O)c1cc2ccccc2s1)c1ccccc1-c1ccccc1"
  IC50: "> 10 µM"
- molecule: "CC(C(=O)N(CCCN(C)C)c1ccccc1SCc1ccccc1)c1ccccc1 (stereo not drawn)"
  IC50: "1 µM"
- molecule: "CN(C)CCCN(C(=O)/C=C/c1ccccc1)c1ccccc1SCc1ccccc1"
  IC50: "10 µM"
- molecule: "CN(C)CCCN(C(=O)[C@@H]1C[C@H]1c1ccccc1)c1ccccc1SCc1ccccc1"
  IC50: "3.7 µM"
- molecule: "CN(C)CCCN(C(=O)c1cc2ccccc2s1)c1ccccc1CCc1ccccc1"
  IC50: "> 10 µM"
